- tgt: T1, human GITR (amino acids M1-V241, NCBI Accession #NP_004186.1) expressed on cells (human, UniProt Q9Y5U5 26-241)
- T1 sequence: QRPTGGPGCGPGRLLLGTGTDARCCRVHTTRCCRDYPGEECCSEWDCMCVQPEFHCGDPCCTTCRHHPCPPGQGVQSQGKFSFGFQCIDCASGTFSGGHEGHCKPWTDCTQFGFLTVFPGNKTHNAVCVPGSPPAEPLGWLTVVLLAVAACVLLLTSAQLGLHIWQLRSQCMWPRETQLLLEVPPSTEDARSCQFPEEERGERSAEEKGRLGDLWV
- protocolDescription: cell-based or functional assay

binder | % Blocking, NF-kB-Luc, non-anchored
H1H14524P (antibody, human IgG1, V domains shown, human IgG1 (H1H)) VH: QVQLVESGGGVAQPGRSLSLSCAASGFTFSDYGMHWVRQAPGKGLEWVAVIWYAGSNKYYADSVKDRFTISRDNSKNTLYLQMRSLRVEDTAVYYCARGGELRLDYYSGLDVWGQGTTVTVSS VL: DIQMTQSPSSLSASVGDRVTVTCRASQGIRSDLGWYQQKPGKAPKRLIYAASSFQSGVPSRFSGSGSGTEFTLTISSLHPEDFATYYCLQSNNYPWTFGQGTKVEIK | 80%
H1H14503P (antibody, human IgG1, V domains shown, human IgG1 (H1H)) VH: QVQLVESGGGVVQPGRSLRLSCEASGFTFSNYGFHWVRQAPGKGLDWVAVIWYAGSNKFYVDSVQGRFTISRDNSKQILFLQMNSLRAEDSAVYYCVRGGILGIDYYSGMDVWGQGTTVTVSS VL: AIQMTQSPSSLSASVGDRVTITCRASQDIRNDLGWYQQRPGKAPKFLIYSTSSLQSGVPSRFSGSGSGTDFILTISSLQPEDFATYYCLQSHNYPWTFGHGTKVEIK | 90%
H1H14486P (antibody, human IgG1, V domains shown, human IgG1 (H1H)) VH: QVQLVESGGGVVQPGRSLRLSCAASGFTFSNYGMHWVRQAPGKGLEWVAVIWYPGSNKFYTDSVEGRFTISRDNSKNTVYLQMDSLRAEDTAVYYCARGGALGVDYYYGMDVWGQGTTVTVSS VL: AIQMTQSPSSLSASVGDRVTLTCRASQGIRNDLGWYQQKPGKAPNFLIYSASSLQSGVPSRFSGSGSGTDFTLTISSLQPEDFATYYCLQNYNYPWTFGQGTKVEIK | 50%
